The origin of these recorded values is ChEMBL document CHEMBL3596099.

# System: Nucleic Acid
# test_details: Binding affinity to A3T3 repeat containing DNA5(3) (unknown origin) assessed as cooperativity with DNA at 10 nM by fluorescence titration based McGhee-von Hippel analysis
# Assay type: nucleic-acid assay
Calls of active or inactive are those of the source. The rule behind the calls is not given here.
Hello, when you answer, please use one of the following outcomes: active, inactive

// known answers, use as guide
molecular_string	target	label
CN1CCN(c2cc(C(=O)NCCN(CCC(=O)NCCOCCOCCNC(=O)COc3ccc4ccccc4c3)CCC(=O)NCCOCCOCCNC(=O)COc3ccc4ccccc4c3)c3nc(-c4ccc5nc(-c6ccc(O)cc6)[nH]c5c4)[nH]c3c2)CC1	Nucleic Acid	active
CN1CCN(c2cc(C(=O)NCCN(CCC(=O)NCCOCCOCCNC(=O)COc3cccnc3)CCC(=O)NCCOCCOCCNC(=O)COc3cccnc3)c3nc(-c4ccc5nc(-c6ccc(O)cc6)[nH]c5c4)[nH]c3c2)CC1	Nucleic Acid	inactive

Please turn your attention to the following entry.
Exam item: Query: recorded result category for "CN1CCN(c2cc(C(=O)NCCN(CCC(=O)NCCOCCOCCNC(=O)COc3ccc4cnccc4c3)CCC(=O)NCCOCCOCCNC(=O)COc3ccc4cnccc4c3)c3nc(-c4ccc5nc(-c6ccc(O)cc6)[nH]c5c4)[nH]c3c2)CC1" in this test
Marked response: active
